These entries and their values trace back to ChEMBL document CHEMBL4689842.

- Tested on: Fibroblast
- TEST_SUMMARY: Multiplex assay against human fibroblast
- Assay type: toxicity, cell-based
- TEST_CONDITIONS: 48 h, 10 µM, compound concentration 10 uM, replicate 1
PARAMETER_MEASURED: Population Tubulin-Different-Phenotype (%)
Answer format reminder: number followed by unit.

Before answering, review these 4 worked examples.
INSERT INTO assay_data (compound, result) VALUES
  ('CCc1cc2c(cc1CC)CC(NC[C@H](O)c1ccc(O)c3[nH]c(=O)ccc13)C2', '67%'),
  ('Cc1nc(Cc2cccc(C(F)(F)F)c2)sc1-c1ccc(C(N)=O)nc1 [TP-024n]', '44%'),
  ('COc1cc(N2CCC(N(C)C)CC2)ccc1Nc1ncc(Cl)c(Nc2ccccc2P(C)(C)=O)n1', '70%'),
  ('COc1cc2c(NC3CCN(C(C)C)CC3)nc(N3CCC(F)(F)CC3)nc2cc1OCCCN1CCCC1', '32%');

Proceeding to the next compound to report its Population Tubulin-Different-Phenotype (%).
Request body: readout Population Tubulin-Different-Phenotype (%), system Fibroblast, query Nc1ccc(C(=O)Nc2cccc(-c3nc(N4CCOCC4)c4oc5ncccc5c4n3)c2)cn1 . Return the value. 78%

====

- Test system: U2OS
- TEST_SUMMARY: Multiplex assay against U2OS
- Type: toxicity, cell-based
- TEST_CONDITIONS: human, 48 h, 10 µM, compound concentration 10 uM, replicate 1
PARAMETER_MEASURED: Population Tubulin-Different-Phenotype (%)
Give just the numeric value; % need not be written.

INSERT INTO assay_data (molecule, assayed_system, measured_number) VALUES
  ('CC(C)N1CCC(C)(C)c2cc(C#Cc3ccc(C(=O)O)cc3)ccc21', 'U2OS', 12),
  ('CNC(=O)c1nn(C)c2c1C(C)(C)Cc1cnc(Nc3ccc(N4CCN(C)CC4)cc3)nc1-2', 'U2OS', 89),
  ('Nc1ccc(C(=O)Nc2cccc(-c3nc(N4CCOCC4)c4oc5ncccc5c4n3)c2)cn1', 'U2OS', 66);

Requested field: Population Tubulin-Different-Phenotype (%). Item: COc1cc2c(NC3CCN(C(C)C)CC3)nc(N3CCC(F)(F)CC3)nc2cc1OCCCN1CCCC1 92

Here is the next molecule: Cl.Cl.Nc1ncnc2c1c(-c1cccc(OCc3ccccc3)c1)cn2[C@H]1C[C@@H](CN2CCC2)C1 100

Here is the next molecule: Cc1cc2c(cc1N1C(=O)c3cccc4c(CCCO)ccc(c34)C1=O)n(C)c(=O)n2C 14

Here is the next molecule: CC(C)Oc1ccc(C(=O)N[C@H](CNC(=O)CN(C)C)Cc2ccc(-c3cn4cccc([C@H](C)O)c4n3)cc2)cc1Cl [GSK-923295A] 97

Here is the next molecule: COc1ccc(NS(=O)(=O)c2sc3ccc(Cl)cc3c2C)cc1N1CCNCC1.Cl 98

Here is the next molecule: Nc1nc2c(c(N3CCNCC3)n1)CCC1=C2[C@@H]2CCCC[C@@H]2O1 63

====

- Tested on: Fibroblast
- TEST_SUMMARY: Multiplex assay against human fibroblast
- Assay type: toxicity, cell-based
- TEST_CONDITIONS: 12 h, 10 µM, compound concentration 10 uM, replicate 2
Measured Total Cell Count, listed per entry.
Answer with a bare number; do not write a unit.

Before answering, review these 2 worked examples.
INSERT INTO assay_data (molecule, measured_number) VALUES
  ('CC(C)N1CCC(C)(C)c2cc(C#Cc3ccc(C(=O)O)cc3)ccc21', 327),
  ('COc1ccc(NS(=O)(=O)c2sc3ccc(Cl)cc3c2C)cc1N1CCNCC1.Cl', 49);

Requested field: Total Cell Count. Item: N#Cc1cnc(Nc2cc(NC[C@H]3CNCCO3)c(C(F)(F)F)cn2)cn1 [SRA-737] 76

Here is the next molecule: CCOc1cc2ncc(C#N)c(Nc3ccc(OCc4cccc(F)c4)c(Cl)c3)c2cc1NC(=O)/C=C/CN(C)C [HKI-357] 170

Here is the next molecule: COc1cc2c(Nc3ccc(NC(=O)c4ccccc4)cc3)ncnc2cc1OCCCN1CCOCC1 82

Here is the next molecule: CNC(=O)c1cc(Oc2ccc(NC(=O)Nc3cc(C(C)(C)C)nn3-c3ccc4ncccc4c3)c(F)c2)ccn1 [REBASTINIB] 60

Here is the next molecule: O=C(O)c1ccc2cc(-c3ccc(O)c(C45CC6CC(CC(C6)C4)C5)c3)ccc2c1 [O-DEMETHYLATED ADAPALENE] 83

Here is the next molecule: Cl.Cl.Nc1ncnc2c1c(-c1cccc(OCc3ccccc3)c1)cn2[C@H]1C[C@@H](CN2CCC2)C1 90

Here is the next molecule: Nc1nc2c(c(N3CCNCC3)n1)CCC1=C2[C@@H]2CCCC[C@@H]2O1 106

Here is the next molecule: CNc1oc(-c2cccc3ccccc23)nc1C#N 92

====

- Test system: U2OS
- TEST_SUMMARY: Multiplex assay against U2OS
- Format: toxicity, cell-based
- TEST_CONDITIONS: human, 12 h, 1 µM, compound concentration 1 uM, replicate 1
Measured Population Healthy Nuclei (%), listed per entry.
Answer format reminder: number followed by unit.

Before answering, review these 6 worked examples.
INSERT INTO assay_data (compound, result) VALUES
  ('Cc1cn(-c2cc(NC(=O)c3ccc4c(c3)CN(c3cncnc3)C[C@@H]4C)cc(C(F)(F)F)c2)cn1', '81%'),
  ('CN(C)CCOc1ccc(-c2nc(-c3ccncc3)c(-c3ccc4c(c3)CC/C4=N\O)[nH]2)cc1 [SB590885]', '42%'),
  ('c1ccc2oc(-c3csc(C4CCN(Cc5nc6ncccc6[nH]5)CC4)n3)cc2c1', '90%'),
  ('N#Cc1cnc(Nc2cc(NC[C@H]3CNCCO3)c(C(F)(F)F)cn2)cn1 [SRA-737]', '89%'),
  ('Nc1nc2c(c(N3CCNCC3)n1)CCC1=C2[C@@H]2CCCC[C@@H]2O1', '66%'),
  ('COc1ccc(NS(=O)(=O)c2sc3ccc(Cl)cc3c2C)cc1N1CCNCC1.Cl', '74%');

Requested field: Population Healthy Nuclei (%). Item: CCc1cc2c(cc1CC)CC(NC[C@H](O)c1ccc(O)c3[nH]c(=O)ccc13)C2 [INDACATEROL] 76%

Here is the next compound: CCC(=O)O[C@]1(C(=O)SCF)[C@H](C)C[C@H]2[C@@H]3C[C@H](F)C4=CC(=O)C=C[C@]4(C)[C@@]3(F)[C@@H](O)C[C@@]21C [FLUTICASONE PROPIONATE] 81%

Here is the next compound: Cl.Cl.Nc1ncnc2c1c(-c1cccc(OCc3ccccc3)c1)cn2[C@H]1C[C@@H](CN2CCC2)C1 70%

Here is the next compound: CCCn1c(=O)c2[nH]c(C34CC5CC(CC3C5)C4)nc2n(CCC)c1=O [ROLOFYLLINE] 77%

Here is the next compound: Nc1ccc(C(=O)Nc2cccc(-c3nc(N4CCOCC4)c4oc5ncccc5c4n3)c2)cn1 64%

====

- Test system: U2OS
- TEST_SUMMARY: Multiplex assay against U2OS
- Format: toxicity, cell-based
- TEST_CONDITIONS: human, 12 h, 1 µM, compound concentration 1 uM, replicate 2
Measured Population Normal (%), listed per entry.
Give just the numeric value; % need not be written.

Before answering, review these 2 worked examples.
INSERT INTO results (molecule, unit_tag, measured_number) VALUES
  ('Cc1cc2c(cc1N1C(=O)c3cccc4c(CCCO)ccc(c34)C1=O)n(C)c(=O)n2C', '%', 91),
  ('Cc1nc(Cc2cccc(C(F)(F)F)c2)sc1-c1ccc(C(N)=O)nc1 [TP-024n]', '%', 88);

Requested field: Population Normal (%). Item: CNc1oc(-c2cccc3ccccc23)nc1C#N 84

Here is the next molecule: CCOc1cc2ncc(C#N)c(Nc3ccc(OCc4cccc(F)c4)c(Cl)c3)c2cc1NC(=O)/C=C/CN(C)C 83

Here is the next molecule: CN(C)C/C=C/C(=O)Nc1cc2c(Nc3ccc(F)c(Cl)c3)ncnc2cc1O[C@H]1CCOC1.O=C(O)/C=C\C(=O)O.O=C(O)/C=C\C(=O)O [AFATINIB DIMALEATE] 88

Here is the next molecule: CNC(=O)c1cc(Oc2ccc(NC(=O)Nc3cc(C(C)(C)C)nn3-c3ccc4ncccc4c3)c(F)c2)ccn1 92

Here is the next molecule: CCOc1cc(N2CCC(O)CC2)ccc1Nc1ncc2c(n1)N(C1CCCC1)CCC(=O)N2C 92

Here is the next molecule: Cc1cn(-c2cc(NC(=O)c3ccc4c(c3)CN(c3cncnc3)C[C@@H]4C)cc(C(F)(F)F)c2)cn1 83

Here is the next molecule: O=C(O)c1ccc2cc(-c3ccc(O)c(C45CC6CC(CC(C6)C4)C5)c3)ccc2c1 90

Here is the next molecule: COc1cc2c(Nc3ccc(NC(=O)c4ccccc4)cc3)ncnc2cc1OCCCN1CCOCC1 87

Here is the next molecule: CC(=O)c1cc(-c2cc(C(=O)NC3CC3)ccc2C)c2ncccn12 92

Here is the next molecule: COc1ccc(NS(=O)(=O)c2sc3ccc(Cl)cc3c2C)cc1N1CCNCC1.Cl 87

Here is the next molecule: Cl.Cl.NC1(c2ccc(-c3nc4ccn5c(=O)[nH]nc5c4cc3-c3ccccc3)cc2)CCC1 87

Here is the next molecule: COc1cc2c(NC3CCN(C(C)C)CC3)nc(N3CCC(F)(F)CC3)nc2cc1OCCCN1CCCC1 94
